# Assay system: GSK3b (GST-full length GSK3b) (Homo sapiens (Human))
# Sequence (P49841 whole entry): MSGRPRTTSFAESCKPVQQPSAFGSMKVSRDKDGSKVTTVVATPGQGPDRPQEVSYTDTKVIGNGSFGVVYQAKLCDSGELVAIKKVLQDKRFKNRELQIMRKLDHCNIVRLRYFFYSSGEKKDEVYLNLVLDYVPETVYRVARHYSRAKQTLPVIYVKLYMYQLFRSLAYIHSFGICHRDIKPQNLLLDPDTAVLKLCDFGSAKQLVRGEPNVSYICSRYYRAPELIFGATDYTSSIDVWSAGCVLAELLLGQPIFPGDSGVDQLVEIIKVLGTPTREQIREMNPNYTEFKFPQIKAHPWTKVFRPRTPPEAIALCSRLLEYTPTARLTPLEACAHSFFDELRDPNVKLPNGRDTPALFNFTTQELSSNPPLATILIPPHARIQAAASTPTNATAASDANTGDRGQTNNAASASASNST
# Protocol: GSK3b TR-FRET kinase assay
# Assay type: biochemical
# Settings: 1 nM GSK3b, 2 μM ATP, 30 minute preincubation, Table 16; read-out: GSK3-B TR-FRET BIOCHEMICAL (TR-FRET)
pIC50: −log10 of the molar value.
Property measured: pIC50

Prompt line: Find the recorded pIC50 belonging to CC1(C)CC2=C(C(=O)[C@H]1F)C1(CCOCC1)c1c[nH]nc1N2 and report it.
Response line: 5.30 to 6.00

Prompt line: And CC[C@]1(c2cccc(-c3ccnc(CCO)c3)c2)C2=C(CC(C)(C)CC2=O)Nc2n[nH]cc21 ?
Response line: 6.00 to 7.00

Prompt line: Let us now turn to CC1(C)CC(=O)C2=C(C1)Nc1n[nH]cc1C21CN(S(=O)(=O)C2CCCCC2)C1
Response line: ≥ 7.00

Prompt line: Try the compound Cc1cc(S(=O)(=O)N2CCC3(CC2)C2=C(CC(C)(C)CC2=O)Nc2n[nH]cc23)ccn1
Response line: ≥ 7.00

###

# Assay system: GSK3b (GST-full length GSK3b) (Homo sapiens (Human))
# Protocol: GSK3b TR-FRET kinase assay
# Assay type: biochemical
# Settings: 1 nM GSK3b, 2 μM ATP, 30 minute preincubation, Table 16; read-out: GSK3-B TR-FRET BIOCHEMICAL (TR-FRET); IC50
pIC50: −log10 of the molar value.
Property measured: pIC50

Prompt line: Value lookup for pIC50; key = CCC1(c2cccc(N(CCOC)C(C)=O)c2)C2=C(CC(C)(C)CC2=O)Nc2n[nH]cc21 (stereo not shown) [Compound 893306]
Response line: ≥ 7.00

Prompt line: And what about the compound CC[C@]1(c2cccc(OC)c2)C2=C(CC(C)(C)NC2=O)Nc2n[nH]c(C)c21 [Compound 949328] ?
Response line: < 5.30

Prompt line: And what about the compound CC1(C)CC(=O)C2=C(C1)Nc1n[nH]cc1C21CN(C2CCOCC2)C1 [Compound 932651] ?
Response line: < 5.30

Prompt line: Now this one: CCC1(c2cccc(-c3cn[nH]c3)c2)C2=C(CC(C)(C)CC2=O)Nc2n[nH]c(C)c21 (stereo not shown) [Compound 883994]
Response line: ≥ 7.00

###

Assignment: determine reported pIC50 for the given compounds.
# Assay system: GSK3b (GST-full length GSK3b) (Homo sapiens (Human))
# Protocol: GSK3b TR-FRET kinase assay
# Format: biochemical
# Settings: 1 nM GSK3b, 2 μM ATP, 30 minute preincubation, Table 16; read-out: GSK3-B TR-FRET BIOCHEMICAL (TR-FRET); IC50
pIC50: −log10 of the molar value.

Prompt line: Value wanted: pIC50 (GSK3b (GST-full length GSK3b) (Homo sapiens (Human))) of entry CO[C@H]1C[C@]2(C1)C1=C(CC(C)(C)CC1=O)Nc1n[nH]cc12
Response line: < 5.30

Prompt line: Continue with CC[C@]1(c2cccc(-c3cn(C)nc3C3CC3)c2)C2=C(CC(C)(C)NC2=O)Nc2n[nH]cc21
Response line: ≥ 7.00

Prompt line: What do you get for CC[C@@]1(c2cccc(-c3ccnn3C3CC3(F)F)c2)C2=C(CC(C)(C)NC2=O)Nc2n[nH]cc21 (some centres unmarked) ?
Response line: < 5.30

Prompt line: Same question for O=C1CCCC2=C1C1(CCOCC1)c1c[nH]nc1N2 please.
Response line: < 5.30

Prompt line: Query CC[C@]1(c2cc(-c3ccnc(C)c3)ccc2F)C2=C(CC(C)(C)CC2=O)Nc2n[nH]cc21 next
Response line: < 5.30

Prompt line: Field entry: CC[C@]1(c2cccc(N3CCCC3)c2)C2=C(CC(C)(C)CC2=O)Nc2n[nH]c(C)c21
Response line: 5.30 to 6.00

Prompt line: Let us now turn to CC[C@@]1(c2cccc(-c3cnn(-c4ccccn4)c3)c2)C2=C(CC(C)(C)NC2=O)Nc2n[nH]cc21
Response line: < 5.30

Prompt line: Also C[C@@H]1CC(=O)C2=C(C1)Nc1n[nH]cc1C21CCOCC1 ?
Response line: 6.00 to 7.00
